Tgt: recombinant human ADAM10 (amino residues 18-672, Cat. No 936-AD) (human) (UniProt O14672)
Field: label. Allowed values: 1.0 (Percent activity compared to no periplasm (50x excess) < 90 percent) or 0.0 (Percent activity compared to no periplasm (50x excess) >= 90 percent).

# example entries with known answers
[[record]]
binder = "Nanobody 33-A1 (VHH) VHH: EVQLVESGGGLVQAGGSLRLSCAASGDTFSRYSMGWFRQAPGKEREFVVYITRSGRTTYYQDSVKGRFTISRDNAKNTVYLQMNSLKPEDTAVYYCAAMRSGNVRYPERYDYWGQGTQVTVSS"
assigned_category = 1.0

[[record]]
binder = "Nanobody 39-D1 (VHH) VHH: KVQLVESGGGLVQAGGSLRLSCAASGNIFINNAVGWYRQAPGKQREMVAAMLSGGSTNYADSVKGRFTISRDNAKNTVYLQMNSLKPEDTAVYYCNVQVNGTWARWGQGTQVTVSS"
assigned_category = 1.0

[[record]]
binder = "Nanobody 33-D1 (VHH) VHH: EVQLVESGGGLVQAGDSLRLSCAATGRTFSSDAMGWFRQAPGKERAFVAGINYNSVYRYYTDSVEGRFTISRDNAKNTVYLQMNSLKPEDTAVYYCAADSDYYSLIGGRPVNYWGQGTQVTVSS"
assigned_category = 1.0

[[record]]
binder = "Nanobody 39-D8, E8 (VHH) VHH: EVQLVESGGGLVRARGSLRLSCAASGGTFSRYAMGWFRQAPGKEREFVAAISRSGGNTYFTESVKGRFTMSRDNAKNTVYLQMNSLKPEDTAVYYCAARSAAVYTTTVYLVDFEYNYWGQGTQVTVSS"
assigned_category = 1.0

[[record]]
binder = "Nanobody 39-F1 (VHH) VHH: EVQLVESGGGLVQAGGSLRLSCAASERIFSTYFMGWFRQAPGKEREFVAFISGNGGSTDYADSVKGRFAISRDNVKNTLYLQMSSLKPDDTAVYYCAVAGRQIKSTWGYWGQGTQVTVSS"
assigned_category = 0.0

[[record]]
binder = "Nanobody 32-E1, E6, 39-A2 (VHH) VHH: EVQLVESGGGLVQAGGSLRLSCAASERIFSTYFMGWFRQAPGKEREFVAFISGNGGSTDYADSVKGRFAISRDNVKNTLYLQMSSLKPDDTAVYYCAVAGRQIKSTWDYWGQGTQVTVSS"
assigned_category = 0.0

[[record]]
binder = "Nanobody 39-C8 (VHH) VHH: EMQLVESGGGLVQTGGSLRLSCAASGRTFTSYCVGWWRQAPGKERDVVAAITRGSNSTDYVDSVKGRFTISRDNAENTVYLQMNSLKPEDTAVYYCAADINCRNLYTGRPEYWGQGTQVTVSS"
assigned_category = 0.0


# ---- query binder ----
Request: Report whether reported Percent activity compared to no periplasm (50x excess) is lower than 90 percent (strictly) for Nanobody 39-B1 (VHH) VHH: EVQLVESGGGLVQAGGSLRLSCARSGRISNINIMAWYRQAPGKTRDMVAAIIGDSTNYADSVKGRFTISRDNAKNTVYLHMNRLKPEDTGVYYCKISGVDWGQGTQVTVSS
Result: 1.0
